Cited source for all entries: ChEMBL document CHEMBL1201862

Measured GI50 accompanies every entry in the list below.
System: CAKI-1
Experiment: NCI tumour cell line growth inhibition, 48 h
Activity calls are given as the source filed them. No stated cut-off is given here; in the data, active = GI50 up to about 1.1 µM and inactive = higher.

The following compounds have reported results that may help.
[
  {
    "Compound": "N#CC1=C(N)OC(c2cccc([N+](=O)[O-])c2)C1(C#N)C#N (stereo not given)",
    "GI50": "2.98 µM (inactive)"
  },
  {
    "Compound": "CN(C)CCNC(=O)Cn1ccc(=O)c2c([N+](=O)[O-])cccc21",
    "GI50": "> 100 µM (inactive)"
  },
  {
    "Compound": "CC1CN(C)c2ccccc2N=C1NN (stereo not given)",
    "GI50": "> 100 µM (inactive)"
  },
  {
    "Compound": "C=C(C[N+](C)(C)C)N/N=C/c1oc(-c2ccc(OC)c(OC)c2)c(-c2ccc(OC)c(OC)c2)c1[N+](=O)[O-]",
    "GI50": "32.6 µM (inactive)"
  },
  {
    "Compound": "Cn1cnc(N2CCCC2)c(C#N)c1=S",
    "GI50": "35.9 µM (inactive)"
  }
]

May I ask what GI50 has been recorded for Clc1ccc(C2=Cc3nc2c(-c2ccccc2)c2ccc([nH]2)c(-c2ccccc2)c2nc(c(-c4ccccc4)c4ccc([nH]4)c3-c3ccccc3)C=C2)cc1 ? 13.9 µM (inactive)

May I ask what GI50 has been recorded for NC(=S)N/N=C(/CCN1CCCC1)CC(C1=C(O)C2=CCCCC2OC1=O)c1ccccc1 (stereo not given) ? > 100 µM (inactive)

May I ask what GI50 has been recorded for O=c1c(Nc2ccccc2)cn(CCOc2ccc(Cl)cc2)c(=O)n1CCOc1ccc(Cl)cc1 ? > 100 µM (inactive)

May I ask what GI50 has been recorded for Cc1nc2ccccc2nc1CC(=O)C(=O)Nc1ccc(Cl)cc1Cl ? > 100 µM (inactive)

May I ask what GI50 has been recorded for O=C1Nc2cccc(C(F)(F)F)c2/C1=N/Nc1ccccc1[N+](=O)[O-] ? > 100 µM (inactive)

----------
Measured GI50 accompanies every entry in the list below.
System: UACC-62
Experiment: NCI tumour cell line growth inhibition, 48 h
Active and inactive are the calls of the source. Rule as the data show it: active = GI50 up to about 1.1 µM and inactive = higher.

The following compounds have reported results that may help.
[
  {
    "Compound": "Nc1nc(SCCC/C=C/B(O)O)nc2c1ncn2C1OC(CO)C(O)C1O (centres undefined)",
    "Result": "> 243 µM (inactive)"
  },
  {
    "Compound": "CN(C)CCNC(=O)Cn1ccc(=O)c2c([N+](=O)[O-])cccc21",
    "Result": "> 100 µM (inactive)"
  },
  {
    "Compound": "O=C(Nc1c(Cl)cccc1Cl)c1c(Cl)c(Cl)c(Cl)c(Cl)c1-c1nc2ccccc2[nH]1",
    "Result": "25.4 µM (inactive)"
  }
]

The record that follows has no GI50 shown yet.
May I ask what GI50 has been recorded for Cn1cc(C(=O)C[n+]2ccccc2)c2ccccc21 ? > 100 µM (inactive)

----------
System: MDA-MB-435
Test: NCI tumour cell line growth inhibition, 48 h
The source made the active and inactive calls. Cut-off read from the data, not from the text of the source: active = GI50 up to about 1.1 µM and inactive = higher.
Property Measured: GI50

May I ask what GI50 has been recorded for O=C(Nc1ccc(Cl)cc1)c1cc2c(cc1Cl)SC(NNCCO)=NS2(=O)=O ? > 100 µM (inactive)

May I ask what GI50 has been recorded for Cc1cc(S(=O)(=O)Nc2nc(Nc3ccc4ccccc4c3)n[nH]2)c(S)cc1Cl ? 24.9 µM (inactive)

May I ask what GI50 has been recorded for O=C(CC(=O)Nc1ccccc1Cl)NNC(Sc1ccccc1)c1cc(/N=N/c2ccc(Br)cc2)ccc1O (stereo not given) ? 2.06 µM (inactive)

May I ask what GI50 has been recorded for C=CCOC1=C(OC(C)=O)C(=O)OC1C1COC(C)(C)O1 (stereo not given) ? 34.3 µM (inactive)

May I ask what GI50 has been recorded for N#Cc1cnn2ccn(C3OC(COC(=O)c4ccccc4)C(OC(=O)c4ccccc4)C3OC(=O)c3ccccc3)c12 (stereo not given) ? > 21.5 µM (inactive)

----------
Test system: HT-29
Assay: NCI tumour cell line growth inhibition, 48 h
Activity calls are given as the source filed them. Rule as the data show it: active = GI50 up to about 1.1 µM and inactive = higher.
Property Measured: GI50

May I ask what GI50 has been recorded for CN(CCN(C)Cc1ccc(Cl)c(Cl)c1)CCN1CCCC1 ? 6.32 µM (inactive)

May I ask what GI50 has been recorded for O=C(Nc1ccc(Cl)cc1)c1cc2c(cc1Cl)SC(NNCCO)=NS2(=O)=O ? > 100 µM (inactive)

May I ask what GI50 has been recorded for c1ccc(-c2cnc3nc4ccccc4nc3n2)cc1 ? 7.05 µM (inactive)

May I ask what GI50 has been recorded for S=P(C1CCCCC1)(C1CCCCC1)C(c1cccnc1)N1CCCC1 (stereo not given) ? 33.8 µM (inactive)

May I ask what GI50 has been recorded for COc1cc2c(cc1NC(=O)c1ccccc1)c1c(n2S(=O)(=O)c2ccccc2)CCN(S(=O)(=O)c2ccccc2)C1 ? > 100 µM (inactive)

May I ask what GI50 has been recorded for COC(=O)/C(=N/NC(C)(C)C)C(C(=O)OC)C(=O)C(=O)Nc1nc2ccc([N+](=O)[O-])cc2s1 (stereo not given) ? > 100 µM (inactive)

May I ask what GI50 has been recorded for CN(C)CCC1(C2=CCCC2)CC/C(=C\c2ccccc2Cl)C1=O (stereo not given) ? 6.44 µM (inactive)

May I ask what GI50 has been recorded for Cc1cn(C2CC(O)C(COC(=O)NCCC(F)(F)C(F)(F)C(F)(F)C(F)(F)F)O2)c(=O)[nH]c1=O (stereo not given) ? > 100 µM (inactive)

May I ask what GI50 has been recorded for O=c1c(Cc2ccccc2)c(-c2ccccc2)[nH]n1C1=NCCN1 ? 24.2 µM (inactive)

May I ask what GI50 has been recorded for COC(=O)C(C#N)C1NC(=O)c2ccccc21 (stereo not given) ? > 100 µM (inactive)

----------
System: SF-268
Experiment: NCI tumour cell line growth inhibition, 48 h
Active and inactive are the calls of the source. Cut-off read from the data, not from the text of the source: active = GI50 up to about 1.1 µM and inactive = higher.
// classify into active, inactive

Examples with answers:
[
  {
    "Molecule": "C/C=N\\N1C(=O)c2ccccc2C1=O",
    "Assigned Class": "inactive"
  },
  {
    "Molecule": "COC(=O)CP1(=O)OC2C(C3CCC2(C)C3(C)C)N1c1cc(C(F)(F)F)cc(C(F)(F)F)c1 (stereo unspecified)",
    "Assigned Class": "inactive"
  },
  {
    "Molecule": "COc1ccc(C2c3cc4c(c(OC)c3CC3OCC(=O)C32)OCO4)cc1OC (stereo unspecified)",
    "Assigned Class": "active"
  },
  {
    "Molecule": "O=C(Cc1ccccc1)NN1C(=O)C(Cl)C1c1ccccc1O (stereo unspecified)",
    "Assigned Class": "inactive"
  },
  {
    "Molecule": "CC1(C)OC(=O)C(c2ccsc2)C(=O)O1",
    "Assigned Class": "inactive"
  }
]

Please turn your attention to the following entry.
Tell me the assay call for CC1=CC(O)C(C(O)(C(F)(F)F)C(F)(F)F)C(C)(C)C1 (stereo unspecified) please. inactive

----------
Measured GI50 accompanies every entry in the list below.
Tested on: PC-3
Test: NCI tumour cell line growth inhibition, 48 h
The source made the active and inactive calls. Cut-off read from the data, not from the text of the source: active = GI50 up to about 1.1 µM and inactive = higher. Where a SMILES comes first, the peptide text is derived from it. The star is where a group is joined. X33 = O=C(c1ccc(-c2ccc(Cl)cc2Cl)o1)*

The following compounds have reported results that may help.
[
  {
    "Compound": "C1CCC(CC2CCC(NC3=NCCO3)CC2)CC1 (stereo not given)",
    "Result": "15.8 µM (inactive)"
  },
  {
    "Compound": "Cc1noc(/N=C2\\C=C(O)C(=O)c3ccccc32)c1C",
    "Result": "16.4 µM (inactive)"
  },
  {
    "Compound": "Cc1nccn1S(=O)(=O)c1ccc(Cl)cc1",
    "Result": "99.8 µM (inactive)"
  },
  {
    "Compound": "COC(=O)Nc1nc(=O)c2ccccc2[nH]1",
    "Result": "> 100 µM (inactive)"
  },
  {
    "Compound": "CCC(C)C(NC(=O)CNC(=O)C(Cc1ccccc1)NC(=O)C1CCCN1C(=O)c1ccc(-c2ccc(Cl)cc2Cl)o1)C(=O)OC (stereo not given) (X33-PFGI-OMe; configuration not given here)",
    "Result": "8 µM (inactive)"
  },
  {
    "Compound": "CC1=NOC2(C1)/C(=N/O)CCC/C2=N\\O (stereo not given)",
    "Result": "> 100 µM (inactive)"
  }
]

May I ask what GI50 has been recorded for CN(NC(=O)CCCl)C1=NCCN1 ? > 100 µM (inactive)

May I ask what GI50 has been recorded for Nn1nnc2ccccc21 ? > 100 µM (inactive)

May I ask what GI50 has been recorded for COC(=O)[C@@H]1C[C@]2(CC=C(C)C)c3ccccc3N(S(=O)(=O)c3ccccc3)[C@@H]2N1C(=O)OC ? 17 µM (inactive)

May I ask what GI50 has been recorded for CNN1C(=O)c2c(N)c(C#N)c(-c3ccccc3)c(-c3ccccc3)c2C1=O ? 55.6 µM (inactive)
